tested on: H358 cells; assay: MTT cell viability assay, H358 cells; format: cell-based; settings: Homo sapiens, NCI-H358, MTT, 72 h
readout.kind: IC50 (µM)
Give a bare numeral; the unit µM is implied.

Lookup: Find the recorded IC50 belonging to C#Cc1cccc(Nc2ncnc3cc(OCCOC)c(OCCOC)cc23)c1 [Erlotinib, reference compound] and report it.
Found: 21.5
